testedSystem: CCAAT/enhancer-binding protein beta (Homo sapiens) (UniProt P17676)
Sequence (P17676 whole entry, looked up): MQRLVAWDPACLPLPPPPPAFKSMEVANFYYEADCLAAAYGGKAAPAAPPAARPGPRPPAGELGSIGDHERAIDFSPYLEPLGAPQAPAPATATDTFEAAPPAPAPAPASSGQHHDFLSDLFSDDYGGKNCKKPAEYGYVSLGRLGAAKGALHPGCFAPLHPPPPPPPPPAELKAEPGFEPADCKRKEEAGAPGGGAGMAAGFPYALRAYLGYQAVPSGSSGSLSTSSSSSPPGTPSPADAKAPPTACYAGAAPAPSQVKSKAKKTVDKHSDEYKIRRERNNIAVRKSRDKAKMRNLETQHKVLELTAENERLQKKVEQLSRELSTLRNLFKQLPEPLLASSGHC
experimentDescription: ATG_C_EBP_CIS: Attagene CIS-FACTORIAL HepG2 Assay for human CCAAT/Enhancer Binding Protein (C/EBP) beta (AID 2282927)
testContext: HepG2 Attagene cis-factorial transcription factor reporter; actives raise or lower the signal
Active and inactive are the calls of the source. The calls were made as follows: active = hit-call score of the fitted dose curve at least 0.9, where 1 is the maximum; inactive = score below 0.9.
endpoint: outcome

Query string: Item under review: CCCCCC(CO)CCC (centres undefined) . Reported outcome?
Result string: inactive

Query string: Item under review: CCCC(=O)C(C)=O . Reported outcome?
Result string: inactive

Query string: Item under review: Nc1cccc(S(=O)(=O)c2cccc(N)c2)c1 . Reported outcome?
Result string: inactive

Query string: Item under review: O=C(Oc1ccccc1)c1ccc(O)cc1 . Reported outcome?
Result string: inactive

Query string: Item under review: O=c1cc(-c2ccccc2)oc2cc(O)cc(O)c12 . Reported outcome?
Result string: inactive

Query string: Item under review: CC(=O)C(=O)O . Reported outcome?
Result string: inactive

Query string: Item under review: CCCCCCCCCCCCCCCCCC(=O)OCC(CC)CCCC (centres undefined) . Reported outcome?
Result string: inactive

Query string: Item under review: Fc1c(F)c(F)c(Br)c(F)c1F . Reported outcome?
Result string: inactive

Query string: Item under review: Nc1cc(Cl)c(O)c(Cl)c1 . Reported outcome?
Result string: inactive

Query string: Item under review: Nc1cc([N+](=O)[O-])ccc1O . Reported outcome?
Result string: inactive

Let us examine a further case.
Query string: Item under review: COc1cc(C(C)(C)C)c(O)c(C(C)(C)C)c1 . Reported outcome?
Result string: inactive

* * *

experimentDescription: ATG_VDRE_CIS: Attagene CIS-FACTORIAL HepG2 Assay for human Vitamin D Receptor Element (VDRE) (AID 2282968)
testContext: HepG2 VDRE cis-reporter transcription, actives raise or lower the signal
Calls of active or inactive are those of the source. How the source made its calls: active means hit-call score of the fitted dose curve at least 0.9, where 1 is the maximum; inactive means score below 0.9.
Bench note: report the call from true (active), false (inactive)

Worked examples follow.
Query string: What call does the record list for O=c1cc(-c2ccccc2)oc2cc(O)cc(O)c12 ?
Result string: false

Query string: What call does the record list for NCCCN1CCOCC1 ?
Result string: false

Further cases:
Query string: What call does the record list for COc1cccc(OC)c1 ?
Result string: false

Query string: What call does the record list for CCCOCC(C)O (stereo not drawn) ?
Result string: false

Query string: What call does the record list for Cc1cccc(C)c1[N+](=O)[O-] ?
Result string: false

Query string: What call does the record list for O=C(O)CCCCCCCC(=O)O ?
Result string: false

Query string: What call does the record list for COCCOCCOCCOCCOCCO ?
Result string: false

Query string: What call does the record list for Cc1ccc2ccccc2n1 ?
Result string: false

Query string: What call does the record list for C#C[C@]1(O)CC[C@H]2[C@@H]3CCC4=Cc5oncc5C[C@]4(C)[C@H]3CC[C@@]21C ?
Result string: true

Query string: What call does the record list for COC(=O)c1ccc(C)cc1 ?
Result string: false

Query string: What call does the record list for CCCC(=O)OCCC(C)CCC=C(C)C (stereo not drawn) ?
Result string: false

Query string: What call does the record list for CC1(C)C(=O)N(Br)C(=O)N1Cl ?
Result string: false

Query string: What call does the record list for Clc1ccc(Cl)c(Cl)c1Cl ?
Result string: false

Query string: What call does the record list for Cc1c(N(C)C)c(=O)n(-c2ccccc2)n1C ?
Result string: false

Query string: What call does the record list for ClCCCl ?
Result string: false

Query string: What call does the record list for CC1=CCC(O)(C(C)C)CC1 (stereo not drawn) ?
Result string: false

Query string: What call does the record list for NCCNCCN ?
Result string: false

Query string: What call does the record list for S=C(S)NCCNC(=S)S ?
Result string: false

Query string: What call does the record list for CC(CCO)CCc1ccccc1 (stereo not drawn) ?
Result string: false

Query string: What call does the record list for O=C(Cl)c1cccc(C(=O)Cl)c1 ?
Result string: false

Query string: What call does the record list for O=[N+]([O-])c1ccc(Nc2ccc(Nc3ccccc3)c(S(=O)(=O)O)c2)c([N+](=O)[O-])c1 ?
Result string: false

Query string: What call does the record list for O=C(O)c1cccc(C(F)(F)F)c1 ?
Result string: false

Query string: What call does the record list for CCC(C)(O)CCC=C(C)C (stereo not drawn) ?
Result string: false

Query string: What call does the record list for NNc1nc(-c2ccc(N)cc2)cs1 ?
Result string: false

Query string: What call does the record list for CN(C)CCCN ?
Result string: false
